- Test system: MDA-MB-468 spheroids with HUVEC/MSC, viability
- Assay info: Anticancer human tumor MDA-MB-468 cell line growth inhibition [PI3K]; active = viability on the fitted dose curve at most 10% of control; inactive = the rest;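 also: spheroids exposed to agents for seven days before readout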
- Experimental parameters: second compound 0.1 µM; first compound 3.16 µM
Possible outcomes: active, inactive

Compound | Label value
CNC(=O)c1ccc(N2C(=S)N(c3ccc(C#N)c(C(F)(F)F)c3)C(=O)C2(C)C)cc1F + COc1c(OCCCN2CCOCC2)ccc2c3n(c(=NC(=O)c4cnc(N)nc4)nc12)CCN3 | inactive
C#Cc1c(F)ccc2cc(O)cc(-c3ncc4c(N5CC6CCC(C5)N6)nc(OCC56CCCN5CC(F)C6)nc4c3F)c12 (stereo not given) + CC(Nc1ncnc2nc[nH]c12)c1cc2cccc(Cl)c2c(=O)n1-c1ccccc1 | inactive
CC1(C)CCC(Nc2ncc(C(F)(F)F)c(-c3c[nH]c4c(P(C)(C)=O)c(C#N)ccc34)n2)CN1 (stereo not given) + CC(Nc1ncnc2nc[nH]c12)c1cc2cccc(Cl)c2c(=O)n1-c1ccccc1 | active
C[C@@H](NC(=O)c1ncnc(N)c1Cl)c1ncc(C(=O)Nc2cc(C(F)(F)F)c(Cl)cn2)s1 + Cc1nc(NC(=O)N2CCCC2C(N)=O)sc1-c1ccnc(C(C)(C)C(F)(F)F)c1 | inactive
C[C@@H](NC(=O)c1ncnc(N)c1Cl)c1ncc(C(=O)Nc2cc(C(F)(F)F)c(Cl)cn2)s1 + CC(Nc1ncnc2nc[nH]c12)c1cc2cccc(Cl)c2c(=O)n1-c1ccccc1 | inactive
